- Measurement Target: T1, recombinant full length human VDAC1 (hVDAC1) (human, UniProt P21796 1-283)
- T1 construct: domain: full length; also called human recombinant VDAC; recombinant VDAC1
- T1 sequence (P21796 whole entry): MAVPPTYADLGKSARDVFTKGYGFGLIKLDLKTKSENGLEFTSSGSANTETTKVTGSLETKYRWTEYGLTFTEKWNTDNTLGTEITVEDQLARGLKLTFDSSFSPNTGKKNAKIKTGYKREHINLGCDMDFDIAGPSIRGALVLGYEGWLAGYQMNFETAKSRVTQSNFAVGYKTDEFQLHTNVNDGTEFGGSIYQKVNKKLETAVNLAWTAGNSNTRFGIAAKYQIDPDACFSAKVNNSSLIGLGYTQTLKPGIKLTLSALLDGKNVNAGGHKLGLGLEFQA
- Test Name: isothermal titration calorimetry, peptide injected into human recombinant VDAC
Measurement Label: pKd
Note on units: pKd is unitless, being -log10 of a concentration expressed in mol/L.

## Input Suppose we examine the binder SARGILSLIQSSTRRAYQQIL (Plain synthetic peptide (not the cell-permeable form) as used in ITC; also called WT MFF peptide #8-11; MFF (L) peptide #8-11) [MFF peptide #8-11 (Ser223-Leu243 of MFF1), wild type] ; what pKd value has been reported?
## Output 4.92
